For each of the compounds below, state its Activity.
System: FL5.12
experiment summary: Downregulation of CD98 expression in mouse FL5.12 cells at 2.5 uM after 3 hrs by DAPI staining-based FACS analysis relative to control
Type: functional
Just the number please, in %, no unit attached.

Q) Any idea what its Activity is? The compound is `CCCCCCCCc1ccc(CCC(N)(CO)CO)cc1`
A) 30

Q) # repeat for `CCCCCCCCc1ccc(C(=O)[C@H]2C[C@H](CO)CN2)cc1.Cl`
A) 0

Q) # repeat for `CCCCCCCCc1ccc(C(=O)CC[C@H]2C[C@H](CO)CN2)cc1.Cl`
A) 8

Q) Continue with `CCCCCCCCc1ccc(C(=O)[C@@H]2CCCN2)cc1.Cl`
A) -21

Q) Next compound up: `CCCCCCCCc1ccc(C(=O)CC[C@@H]2C[C@@H](O)CN2)cc1.Cl`
A) 15

Q) Next record, please: `CCCCCCCCc1ccc(CC(=O)[C@@H]2C[C@@H](O)CN2)cc1.Cl`
A) 13

Q) Same lookup for `CC(=O)CCCCCCc1ccc([C@H]2CCN[C@@H]2CO)cc1.Cl` , please.
A) -15

Q) What do we get for CCCCCCCCc1ccc(CC(O)[C@H]2C[C@H](O)CN2)cc1.Cl (stereo not given in full) ?
A) 9

Q) Same again, this time with `CCCCCCCCc1ccc(C(=O)[C@H]2C[C@H](O)CN2)cc1.Cl`
A) 12

Q) Likewise for `CCCCCCCCc1ccc(C(=O)C[C@@H]2C[C@@H](O)CN2)cc1.Cl` ?
A) 22

----------
Test system: FL5.12
experiment summary: Cytotoxicity against mouse FL5.12 cells after 48 hrs by DAPI or propidium iodide staining-based flow cytometric analysis
Format: functional, cell-based
condition summary: FL5.12, 48 h
observation type: IC50 (µM)
Express the result in µM but write the number alone.

Q) Data request, read-out IC50, for `CC(=O)CCCCCCc1ccc([C@H]2CCN[C@@H]2CO)cc1.Cl`
A) 15.1

Q) Next molecule: `CCCCCCCCc1ccc([C@H]2CCN[C@@H]2CO)cc1`
A) 2.1

Q) Now this one: `CCCCCCCCc1ccc(C(=O)C[C@H]2C[C@H](CO)CN2)cc1.Cl`
A) 2

Q) Please give the result for `Cc1nc(CCCCCCCc2ccc([C@H]3CCN[C@@H]3CO)cc2)co1.Cl` too.
A) 8.4

Q) // repeat for `CCCCCCCCc1ccc(C(=O)[C@@H]2C[C@@H](OP(=O)(O)O)CN2)cc1.Cl` and report
A) 12.9

----------
Would you mind telling me the reported Activity of each entry?
System: FL5.12
experiment summary: Downregulation of CD98 expression in mouse FL5.12 cells at 40 uM after 3 hrs by DAPI staining-based FACS analysis relative to control
Format: functional
Your answer is read as %, so omit the unit and give the number.

Q) Name the recorded Activity for `Cc1nc(/C=C/CCCCCc2ccc([C@H]3CCN[C@@H]3CO)cc2)co1.Cl` .
A) 61

Q) Please give the result for `CCCCCCCCc1ccc(CC(=O)[C@@H]2C[C@@H](O)CN2)cc1.Cl` too.
A) 59

Q) Query `Cc1nc(CCCCCCCc2ccc([C@H]3CCN[C@@H]3CO)cc2)co1.Cl` next
A) 61

Q) Next compound up: `CCCCCCCCc1ccc(C(=O)[C@@H]2CCCN2)cc1.Cl`
A) 33

Q) Try this compound next: `CCCCCCCCc1ccc(C(=O)[C@@H]2C[C@@H](OP(=O)(O)O)CN2)cc1.Cl`
A) -8

Q) // same read-out, input: `CCCCCCCCc1ccc(C(=O)[C@@H]2C[C@@H](O)CN2)cc1.Cl`
A) 48

Q) Also `CCCCCCCCc1ccc([C@@H]2CC[C@H]3C[C@H](CO)CN32)cc1.Cl` , if possible.
A) 68

Q) `CCCCCCCCc1ccc(C(=O)[C@H]2C[C@H](O)CN2)cc1.Cl` , same question.
A) 41

Q) Entry `CC(=O)CCCCCCc1ccc([C@H]2CCN[C@@H]2CO)cc1.Cl` please
A) 23

Q) Same again, this time with `CCCCCCCCc1ccc(CC(=O)[C@H]2C[C@H](O)CN2)cc1.Cl`
A) 54

Q) Check `CCCCCCCCc1ccc(C(=O)[C@H]2C[C@H](OP(=O)(O)O)CN2)cc1.Cl` too.
A) 0

Q) Another: `CCCCCCCCc1ccc(C(=O)[C@H]2C[C@H](CO)CN2)cc1.Cl`
A) 61

Q) Now consider `CCCCCCCCc1ccc(CC(=O)[C@@H]2C[C@@H](OP(=O)(O)O)CN2)cc1.Cl` .
A) 0

Q) Follow-up item: `CCCCCCCCc1ccc(CC(=O)[C@H]2C[C@H](OP(=O)(O)O)CN2)cc1.Cl`
A) 8

Q) Moving on to the next compound: `Cl.OC[C@H]1NCC[C@@H]1c1ccc(CCCOCc2ccccc2)cc1`
A) 51

----------
Tested on: FL5.12
experiment summary: Cytotoxicity against mouse FL5.12 cells after 48 hrs by DAPI or propidium iodide staining-based flow cytometric analysis
Format: functional, cell-based
condition summary: FL5.12, 48 h
pIC50: −log10 of the molar value.
# pIC50 >= 5 gives satisfied, anything below gives not satisfied

Q) Quick check, pIC50 >= 5? CCCCCCCCc1ccc(C(C[C@@H]2CCCN2)OC)cc1.Cl (some centres not stated)
A) satisfied

Q) And then `CCCCCCCCc1ccc(CC(=O)[C@H]2C[C@H](OP(=O)(O)O)CN2)cc1.Cl` , what is it?
A) not satisfied

Q) Proceed to `CCCCCCCCc1ccc(CC[C@@H]2CCCN2)cc1.Cl`
A) satisfied

Q) Same read-out for `CCCCCCCCc1ccc(C[C@@H]2C[C@@H](O)CN2)cc1` ?
A) satisfied

Q) Now the same for `CCCCCCCCc1ccc(CC(=O)[C@H]2C[C@H](O)CN2)cc1.Cl`
A) not satisfied

Q) Then CCCCCCCCc1ccc(CC(O)[C@H]2C[C@H](O)CN2)cc1.Cl (some centres not stated) ?
A) satisfied

Q) Next entry: `CCCCCCCCc1ccc(C(=O)[C@@H]2C[C@@H](O)CN2)cc1.Cl`
A) not satisfied

Q) Also need `CCCCCCCCc1ccc(C(=O)C[C@@H]2C[C@@H](O)CN2)cc1.Cl` , thanks.
A) satisfied

Q) Subsequent entry: `CCCCCCCCc1ccc(CC(=O)[C@@H]2C[C@@H](O)CN2)cc1.Cl`
A) not satisfied

Q) And `CCCCCCCCc1ccc(CC(=O)[C@@H]2C[C@@H](OP(=O)(O)O)CN2)cc1.Cl` ?
A) not satisfied

Q) For `CCCCCCCCc1ccc(C(=O)CC[C@@H]2C[C@@H](O)CN2)cc1.Cl` then?
A) satisfied

Q) Repeat for the following compound: `CCCCCCCCc1ccc(C(=O)[C@H]2C[C@H](CO)CN2)cc1.Cl`
A) not satisfied

Q) And then `CCCCCCCCc1ccc(C(=O)[C@@H]2CCCN2)cc1.Cl` , what is it?
A) not satisfied

Q) Next entry: `CCCCCCCCc1ccc(C(=O)[C@H]2C[C@H](O)CN2)cc1.Cl`
A) not satisfied

Q) What would you report for `CCCCCCCCc1ccc(C(=O)C[C@@H]2CCCN2)cc1.Cl` ?
A) satisfied

Q) Field entry: CCCCCCCCc1ccc(CC(O)[C@@H]2C[C@@H](O)CN2)cc1.Cl (some centres not stated)
A) satisfied

Q) Try this compound too: `CCCCCCCCc1ccc(CCC(N)(CO)CO)cc1`
A) satisfied

Q) Same for `CCCCCCCCc1ccc(C(=O)CC[C@H]2C[C@H](CO)CN2)cc1.Cl`
A) satisfied

----------
Test system: FL5.12
experiment summary: Downregulation of CD98 expression in mouse FL5.12 cells at 2.5 uM after 3 hrs by DAPI staining-based FACS analysis relative to control
Type: functional
observation type: Activity (%)
Give your result in % as a bare value.

Q) Quick check: Activity of `Cl.OC[C@H]1NCC[C@@H]1c1ccc(CCCOCc2ccccc2)cc1` ?
A) 11

Q) Next up: `Cc1nc(CCCCCCCc2ccc([C@H]3CCN[C@@H]3CO)cc2)co1.Cl`
A) 5

Q) Same again, this time with `CCCCCCCCc1ccc([C@H]2CCN[C@@H]2CO)cc1`
A) 41

Q) Queued: `CCCCCCCCc1ccc(C[C@@H]2C[C@@H](O)CN2)cc1`
A) 40

Q) Also check `CCCCCCCCc1ccc(C(=O)C[C@@H]2CCCN2)cc1.Cl`
A) 28

Q) Then `Cc1nc(/C=C/CCCCCc2ccc([C@H]3CCN[C@@H]3CO)cc2)co1.Cl` ?
A) 5

Q) And then `CCCCCCCCc1ccc(C(=O)C[C@H]2C[C@H](CO)CN2)cc1.Cl` , what is it?
A) 44

Q) Likewise for `CCCCCCCCc1ccc(CC(=O)[C@H]2C[C@H](O)CN2)cc1.Cl` ?
A) 11

Q) Now the molecule CCCCCCCCc1ccc(C(C[C@@H]2CCCN2)OC)cc1.Cl (stereo partly drawn)
A) 16

Q) Param item: `CCCCCCCCc1ccc(C(=O)[C@@H]2C[C@@H](O)CN2)cc1.Cl`
A) 2

Q) Can you handle `CCCCCCCCc1ccc(CC[C@@H]2CCCN2)cc1.Cl` next?
A) 41

Q) Try this molecule next: `CCCCCCCCc1ccc([C@@H]2CC[C@H]3C[C@H](CO)CN32)cc1.Cl`
A) 0

Q) Note, next up: CCCCCCCCc1ccc(CC(O)[C@@H]2C[C@@H](O)CN2)cc1.Cl (stereo partly drawn)
A) 19

Reference source: ChEMBL document CHEMBL4265978
